Entries and their melting point

Quick one: melting point for Cc1ccc2c(c1)[nH]c(=O)n2C1CCN(C2CCN(C(=O)OC(C)(C)C)CC2)CC1 ?
210 to 211 °C

And what about the compound O=C(Nc1ccc(Cl)c(Cl)c1)c1cc(C(F)(F)F)cc([N+](=O)[O-])c1N1CCCCC1 ?
144 °C

And what about the compound COCC1(C)CCOc2ccc(C#Cc3ccc(C(=O)O)cc3)cc21 (stereo not given) ?
202 to 203 °C

And what about the compound CC(C)(C)c1ccc(S(=O)(=O)N2c3ccccc3C[C@H]2C(=O)NCc2ccc([N+](=O)[O-])cc2)cc1 ?
75 to 80 °C

And what about the compound COc1ccc2cc(C=O)oc2c1 ?
75 to 77 °C

And what about the compound COc1ccc(-n2c3ccccc3c3cc(C=C(C#N)c4cc(F)cc(F)c4)ccc32)cc1 ?
200 to 203 °C

And what about the compound O=C(Nc1ncc(C(F)(F)F)o1)C1c2cc(F)ccc2Oc2ccc(F)cc21 ?
232 °C

And what about the compound O=C(OC(c1ccccc1)c1ccccc1)C(=O)N1C(=O)[C@@H]2N=C(c3ccccc3)O[C@@H]21 ?
182 °C
